Tgt: Equilibrative nucleoside transporter 1 (Homo sapiens)
Run Description: Displacement of 5-(SAENTA)-X8-fluorescein from human ENT1 transporter in human K562 cells
For each record, write down the corresponding Ki.

Reported Ki, molecule O=[N+]([O-])c1ccc2c(c1)CCN(c1ncnc3c1nc1n3[C@@H]3O[C@H](CO1)[C@@H](O)[C@H]3O)C2 : ____
> 1 µM

Try O=[N+]([O-])c1cccc2c1CN(c1ncnc3c1nc1n3[C@@H]3O[C@H](CO1)[C@@H](O)[C@H]3O)CC2 next.
> 1 µM

Try O=[N+]([O-])c1ccc2c(c1)CN(c1ncnc3c1nc1n3[C@@H]3O[C@H](CO1)[C@@H](O)[C@H]3O)CC2 next.
0.0189 µM

Try O=[N+]([O-])c1cccc2c1CCN(c1ncnc3c1nc1n3[C@@H]3O[C@H](CO1)[C@@H](O)[C@H]3O)C2 next.
> 1 µM

* * *

Protein target, amino acids: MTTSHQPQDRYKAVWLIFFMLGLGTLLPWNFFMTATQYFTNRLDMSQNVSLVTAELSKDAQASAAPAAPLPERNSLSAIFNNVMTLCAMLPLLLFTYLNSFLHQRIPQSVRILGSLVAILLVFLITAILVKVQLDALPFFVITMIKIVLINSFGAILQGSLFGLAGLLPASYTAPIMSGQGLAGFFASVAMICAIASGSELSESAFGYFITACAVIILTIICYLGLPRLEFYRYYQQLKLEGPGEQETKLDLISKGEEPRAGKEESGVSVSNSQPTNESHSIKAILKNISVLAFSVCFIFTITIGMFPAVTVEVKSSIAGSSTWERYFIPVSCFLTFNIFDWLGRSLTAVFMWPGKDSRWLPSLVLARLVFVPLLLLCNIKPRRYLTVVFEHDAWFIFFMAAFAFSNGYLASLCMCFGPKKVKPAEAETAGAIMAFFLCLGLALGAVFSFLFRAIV
pIC50: −log10 of the molar value.
Rule: pIC50 of 6 or more gives YES; anything lower gives NO.

Check this compound for pIC50 at or above 6: Cc1cccc(CSc2ncnc3c2ncn3[C@@H]2O[C@H](CO)[C@@H](O)[C@H]2O)c1
NO

Try O=[N+]([O-])c1ccc(CNc2ncnc3c2ncn3[C@@H]2O[C@H](CO)[C@@H](O)[C@@H]2O)cc1 next.
YES

Try OC[C@H]1O[C@@H](n2cnc3c(Nc4ccccc4)ncnc32)[C@H](O)[C@@H]1O next.
NO

Try Nc1ccc(CNc2ncnc3c2ncn3[C@@H]2O[C@H](CO)[C@@H](O)[C@H]2O)cc1 next.
NO

Try Nc1nc(SCc2ccc([N+](=O)[O-])cc2)c2ncn([C@@H]3O[C@H](CO)[C@@H](O)[C@H]3O)c2n1 next.
YES

Try C=CCSc1ncnc2c1ncn2[C@@H]1O[C@H](CO)[C@@H](O)[C@H]1O next.
NO

Try OC[C@H]1O[C@@H](n2cc(I)c3c(Cl)ncnc32)[C@H](O)[C@@H]1O next.
NO

Try OC[C@H]1O[C@@H](n2cnc3c(NCc4ccco4)ncnc32)[C@H](O)[C@@H]1O [KINETIN RIBOSIDE] next.
NO

Try OC[C@H]1O[C@@H](n2cnc3c(CSc4cccc(I)c4)ncnc32)[C@H](O)[C@@H]1O next.
YES

Try CSc1nc(N)nc2c1ncn2[C@@H]1O[C@H](CO)[C@@H](O)[C@H]1O next.
NO

Try O=[N+]([O-])c1ccc(CNc2ncnc3c2ncn3[C@@H]2O[C@H](CO)[C@@H](O)[C@H]2O)cc1 next.
YES

Try Nc1nc(SCc2ccccc2)c2ncn([C@@H]3O[C@H](CO)[C@@H](O)[C@H]3O)c2n1 next.
NO

Try O=[N+]([O-])c1ccc2c(c1)CN(c1ncnc3c1nc1n3[C@@H]3O[C@H](CO1)[C@@H](O)[C@H]3O)CC2 next.
YES

Try OC[C@H]1O[C@@H](n2cnc3c(CSc4ccccc4Br)ncnc32)[C@H](O)[C@@H]1O next.
NO

Try Nc1nc(SCCc2ccccc2)c2ncn([C@@H]3O[C@H](CO)[C@@H](O)[C@H]3O)c2n1 next.
NO

Try CCCCCNc1ncnc2c1ncn2[C@@H]1O[C@H](CO)[C@@H](O)[C@H]1O next.
NO

Try Cc1c(CNc2ncnc3c2ncn3[C@@H]2O[C@H](CO)[C@@H](O)[C@H]2O)cccc1[N+](=O)[O-] next.
YES

Try OC[C@H]1O[C@@H](n2cnc3c(CSc4ccc(Cl)cc4)ncnc32)[C@H](O)[C@@H]1O next.
YES

Try O=[N+]([O-])c1cccc2c1CCN(c1ncnc3c1ncn3[C@@H]1O[C@H](CO)[C@@H](O)[C@H]1O)C2 next.
NO

Try OC[C@H]1O[C@@H](n2cnc3c(SCc4ccccc4)ncnc32)[C@H](O)[C@@H]1O next.
NO

Try OC[C@H]1O[C@@H](n2cnc3c(SC4CCCCC4)ncnc32)[C@H](O)[C@@H]1O next.
NO

Try O=[N+]([O-])c1ccc(O)c(CSc2ncnc3c2ncn3[C@@H]2O[C@H](CO)[C@@H](O)[C@H]2O)c1 next.
YES

Try CC(C)c1ccc(CSc2ncnc3c2ncn3[C@@H]2O[C@H](CO)[C@@H](O)[C@H]2O)cc1 next.
NO

Try CCSc1nc(N)nc2c1ncn2[C@@H]1O[C@H](CO)[C@@H](O)[C@H]1O next.
NO

Try O=[N+]([O-])c1ccc2c(c1)CN(c1ncnc3c1ncn3[C@@H]1O[C@H](CO)[C@@H](O)[C@H]1O)CC2 next.
YES

Try O=[N+]([O-])c1cccc2c1CCN(c1ncnc3c1nc1n3[C@@H]3O[C@H](CO1)[C@@H](O)[C@H]3O)C2 next.
NO

Try OC[C@H]1O[C@@H](n2cnc3c(CSc4cccc(F)c4)ncnc32)[C@H](O)[C@@H]1O next.
YES
